Source of measurements: patent EP1537869A2

Experiment: in vitro
Settings: hamster, cho cells
reported.metric: viability at 3 h, 300 µM (%)
Write the answer as a number in %, unit excluded.

**Query** Tell us which viability at 3 h, 300 µM value is on record for Cc1c(N=Cc2ccccn2)c(=O)n(-c2ccccc2)n1C [Antipy-PCD]
**Result** 36
